Please respond with reported MIC for every item in the list.
# Test system: Staphylococcus aureus
# Procedure Details: Antimicrobial activity against methicillin-resistant Staphylococcus aureus ATCC 33592 after 18 to 24 hrs by alamar blue assay
# Format: functional
# Run Conditions: Staphylococcus aureus, ATCC 33592; read-out: MIC

Observe how each entry below is paired with its result.
# Compound, MIC
rows = [
    ("CCc1ccccc1NS(=O)(=O)c1ccc2c(c1)NC(C)CC(=O)S2 (stereo not given)", "8 µg/mL"),
    ("Cc1c(CC(=O)N[C@@H](CCCNC(N)=O)C(=O)O)c(=O)oc2c(C)c3occ(-c4ccc(Cl)cc4)c3cc12", "2.5 µg/mL"),
    ("O=C1c2cccc3c([N+](=O)[O-])ccc(c23)C(=O)N1Cc1cccnc1", "2 µg/mL"),
]

Give MIC for all compounds that follow.
1. CCCc1ccc(C)c(Oc2ccc(Cl)cc2NC(=O)c2cc(Cl)cc(Br)c2O)c1
2. CCN(CC)c1cc(C)c2cc(NC(=O)c3ccc([N+](=O)[O-])o3)ccc2n1
3. O=C(Nc1nnc(-c2ccc(Cl)cc2)o1)c1ccc(C(F)(F)F)cc1

Response:
0.125 µg/mL
> 4 µg/mL
1.5 µg/mL

// each listed compound needs a value for MIC
1. O=C(Nc1nnc(-c2ccccc2Cl)o1)c1cccc(C(F)(F)F)c1
2. O=C(c1ccc(Cl)cc1)c1cc(NC(=O)c2cc(I)cc(I)c2O)ccc1Cl
3. O=C(Nc1cccc2c1C(=O)NC2=O)c1ccc([N+](=O)[O-])o1
4. O=C(Nc1cc(Cl)c(Cl)c(Cl)c1)c1cc(Cl)cc(Cl)c1O
5. CCc1cc(O)nc(N2NC(C)=CC2NC(=O)c2ccccc2Cl)n1 (stereo not given)
6. Cc1ccc(-c2coc3c(C)c4oc(=O)c(CCC(=O)O)c(C)c4cc23)cc1
7. O=C(Nc1cc(S(=O)(=O)c2ccc(Cl)cc2)ccc1Cl)c1cc(I)cc(I)c1O

Response:
["0.5 µg/mL", "4 µg/mL", "1 µg/mL", "0.5 µg/mL", "1.2 µg/mL", "2 µg/mL", "8 µg/mL"]

Hi team, please reply with MIC for each item in this list.
1. O=c1c2ccccc2nc(/C=C/c2ccc([N+](=O)[O-])o2)n1CCCO
2. Cc1ccc(C(C)C)c(Oc2ccccc2NC(=O)c2cc(Br)cc(Br)c2O)c1
3. Cc1c(CC(=O)N[C@@H](C(=O)O)c2ccccc2)c(=O)oc2c(C)c3occ(-c4ccc(Cl)cc4)c3cc12
4. O=C1c2cccc3cccc(c23)C(=O)N1CCN1CCN(CCc2ccccc2)CC1
5. O=C(Nc1cc(Cl)ccc1Oc1ccccc1)c1cc(Br)cc(Br)c1O
6. CCOc1ccc2nc(NC(=O)c3ccc([N+](=O)[O-])o3)sc2c1
7. O=C1c2ccc([N+](=O)[O-])c3c([N+](=O)[O-])ccc(c23)C(=O)N1c1ccccc1

Response:
1: 2 µg/mL; 2: 4 µg/mL; 3: 2.5 µg/mL; 4: 1 µg/mL; 5: 0.25 µg/mL; 6: 4 µg/mL; 7: 2.5 µg/mL
